System: kochia (Kochia scoparia)
measurementDescription: Test C greenhouse herbicide test, postemergence
Type: in vivo
recordedConditions: postemergence, 62 g ai/ha; scale 0 to 100, 0 no effect, 100 complete control
Kindly supply the reported Kochia plant response rating values for the records listed here.
Answers are plain numbers.

Batch: Kochia plant response rating for all items listed.
1. CCc1sc2ccc(C)cc2c1-c1c(O)c(C)nn(C)c1=O
2. Cc1sc2ccccc2c1-c1c(O)c(Cl)nn(C)c1=O

90
90

Batch: Kochia plant response rating for all items listed.
1. Cc1cc2ccccc2c(-c2c(O)c(C)nn(C)c2=O)c1C
2. Cc1ccc2ccccc2c1-c1c(OC(=O)OC(C)C)c(C)nn(C)c1=O
3. Cc1ccc2sc(Br)c(-c3c(O)c(C)nn(C)c3=O)c2c1

[45, 85, 90]
